Data origin: ChEMBL document CHEMBL2401643

# System Under Test: Neuropeptide Y receptor type 2 (Homo sapiens)
# Sequence (P49146 whole entry): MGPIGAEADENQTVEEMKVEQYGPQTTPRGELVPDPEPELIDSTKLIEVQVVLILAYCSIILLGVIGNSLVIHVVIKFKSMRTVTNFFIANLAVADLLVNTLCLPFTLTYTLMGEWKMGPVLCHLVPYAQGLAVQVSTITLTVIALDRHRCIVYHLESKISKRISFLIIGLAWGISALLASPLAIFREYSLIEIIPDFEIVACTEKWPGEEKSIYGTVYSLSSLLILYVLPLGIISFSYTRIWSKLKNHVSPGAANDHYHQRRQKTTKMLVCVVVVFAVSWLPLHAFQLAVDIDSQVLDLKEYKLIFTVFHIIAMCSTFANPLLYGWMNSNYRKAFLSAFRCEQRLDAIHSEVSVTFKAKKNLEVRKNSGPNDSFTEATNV
# Protocol Summary: Displacement of [125I]PYY from NPY-Y2 receptor in human KAN-TS cell membranes after 1 hr by scintillation counting analysis
Measured Property: log10 IC50 (log10 of the value in nM)

In [3]: df
Out[3]:
                                   molecule                         system_under_test  result_number
0  CCNC(=O)C(c1ccccc1)C1CCN(c2ccc(NC(=O)c3c(C)noc3C)cc2F)CC1 (stereo not given)  Neuropeptide Y receptor type 2 (Homo sapiens)           2.68
1  CCNC(=O)C(c1ccccc1)C1CCN(c2ccc(NC(=O)c3ccccc3Br)cc2F)CC1 (stereo not given)  Neuropeptide Y receptor type 2 (Homo sapiens)           2.82
2  CCNC(=O)C(c1ccccc1)C1CCN(c2ccc(NC(=O)Nc3ccccc3-c3ccccc3)cc2F)CC1 (stereo not given)  Neuropeptide Y receptor type 2 (Homo sapiens)           1.43
3  CCN(CC)C(=O)C(c1ccccc1)C1CCN(c2ccc(NC(=O)Nc3c(C)noc3C)cc2F)CC1 (stereo not given)  Neuropeptide Y receptor type 2 (Homo sapiens)           1.08
4  CCN(CC)C(=O)C(c1ccccc1)C1CCN(c2ccc(NC(=O)c3c(C)noc3C)cc2F)CC1 (stereo not given)  Neuropeptide Y receptor type 2 (Homo sapiens)           1.57
